System: TCC-SUP;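 also: growth inhibition of TCC-SUP cells, read out with a cell viability assay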
Assay: cells
Format: functional, cell-based
Settings: Homo sapiens
Description: SANGER: Inhibition of human TCCSUP cell growth in a cell viability assay.
experimental_readout: IC50

// below: answered compounds
# compound, IC50
rows = [
    ("CN(C)CCOc1ccc(-c2nc(-c3ccncc3)c(-c3ccc4c(c3)CC/C4=N\\O)[nH]2)cc1 [SB590885]", "> 5 µM"),
    ("O=C(NCCCNc1nc(Nc2cccc(NC(=O)N3CCCC3)c2)ncc1I)c1cccs1 [BX-795]", "> 5 µM"),
]

Summary for this compound, O=S(=O)(O)c1ccc2cc(/N=N/c3cc(S(=O)(=O)O)c4cccnc4c3O)ccc2c1 : IC50 is > 16 µM

###

Entries and their measured pIC50 follow.
Tested on: NTERA-2-cl-D1;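 also: inhibition of cell growth, measured with a cell viability assay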
Assay: cells
Assay type: functional, cell-based, Homo sapiens
Details: Homo sapiens, NTERA-2-cl-D1
Description: SANGER: Inhibition of human NTERA-S-cl-D1 cell growth in a cell viability assay.
pIC50: −log10 of the molar value.

// below: answered molecules
# molecule, pIC50
measured = [
    ("O=C1NC(=O)c2c1c(-c1ccccc1Cl)cc1[nH]c3ccc(O)cc3c21", "< 5.70"),
    ("OC[C@H](Cc1ccccc1)Nc1nc(Oc2ccc3c(c2)CCC3)nc2c1ncn2Cc1ccc(-c2ccccc2)cc1", "< 4.99"),
    ("C=CC(=O)N1CCCC(Nc2nc(Nc3ccc(N(C)C(=O)CC)cc3)nc3[nH]cnc23)C1 (stereo unspecified)", "< 4.99"),
    ("NC(=O)c1cccc(-c2cc(Nc3ccc(OC(F)(F)F)cc3)ncn2)c1", "< 5.89"),
    ("C/C(=C\\c1csc(C)n1)[C@@H]1C[C@@H]2O[C@]2(C)CCC[C@H](C)[C@H](O)[C@@H](C)C(=O)C(C)(C)[C@@H](O)CC(=O)O1", 9.14),
]

# evaluate next
Summary for this molecule, C[C@@H](Oc1cc(-c2cnn(C3CCNCC3)c2)cnc1N)c1c(Cl)ccc(F)c1Cl : pIC50 is < 5.70
